- TARGET ENTITY: T1, recombinant human CD39 (R&D Systems) (human, UniProt P49961 38-478)
- T1 construct: bought; also called CD39 antigen (R&D Systems); ENTPD1
- T1 sequence: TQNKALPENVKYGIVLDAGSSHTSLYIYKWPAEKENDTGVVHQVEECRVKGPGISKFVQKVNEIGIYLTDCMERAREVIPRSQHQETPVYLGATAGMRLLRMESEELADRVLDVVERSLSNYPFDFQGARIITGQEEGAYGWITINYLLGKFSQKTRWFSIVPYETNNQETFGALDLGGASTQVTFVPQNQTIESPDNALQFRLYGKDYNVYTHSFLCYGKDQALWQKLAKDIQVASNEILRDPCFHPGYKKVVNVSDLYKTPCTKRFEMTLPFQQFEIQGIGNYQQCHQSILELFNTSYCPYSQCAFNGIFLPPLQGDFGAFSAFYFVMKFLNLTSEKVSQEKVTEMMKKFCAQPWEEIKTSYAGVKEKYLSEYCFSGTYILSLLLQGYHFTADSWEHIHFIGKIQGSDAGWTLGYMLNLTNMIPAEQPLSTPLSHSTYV
- METHOD SUMMARY: BLI (Octet QK384); antibody on anti-mouse IgG Fc sensor, recombinant human CD39 in solution
// values below are reported Kd
Just the number please, in nM, no unit attached.

anti-CD39 monoclonal antibody 5-71A (antibody, V domains shown, purified mouse hybridoma antibody, IgG2a isotype; also called R21-5-71A; R29-5-71A) VH: DVQLVESGGGLVQPGGSRKLSCAASGFTFSSFGMHWVRQAPEKGLELVAYISSGSTIRYYSDTVKGRFTISRDNPKNTLFLQMTSLRSEDTAMYYCARFLYEGFRYGMDYWGQGTSVTVSS VL: DVLMTQTPLSLPVSLGDQASISCRSSQSIVHSNGNTYLEWYLQKPGQSPKLLIYKVSNRFSGVPDRFSGSGSGTDFTLKISRVEAEDLGIYYCFQGSHVPNTFGGGTKLEIK ... 0.73
anti-CD39 monoclonal antibody 9-8B (antibody, V domains shown, purified mouse hybridoma antibody, IgG2a isotype; also called R21-9-8B; R29-9-8B) VH: QIQLVQSGPELKKPGETVKISCKASGYTFTHYGMNWVKQAPGKGLKWMGWINTYTGELTYADDFKGRFAFSLETSASTAYLQINNLKNEDTATYFCARRAYYRYDYVMDYWGQGTSVTVSS VL: DIVMTQSQKFMSTSVGDRVSVTCKASHNVGTNVAWYQQKPGQSPKALIYSASYRYSGVPGRFTGSGSGTDFTLTISNVQSEDLAEYFCHQYNNYPYTFGGGTKLEIK ... 3.1
anti-CD39 monoclonal antibody 5-13A (antibody, V domains shown, purified mouse hybridoma antibody, IgG2a isotype; also called R21-5-13A; R29-5-13A) VH: QVQLQQSGPELVKPGASVRISCKASGYTFTGYYVHWVKQRPGQGLEWIGWIYPGNVNTKYNEKFKAKATLTADKSSSTGYMQLSRLTSEDSAVYFCARSPYYGTTYYYTMDYWGQGTSVTVSS VL: EIVLTQSPAFMAASPGEKVTITCSVSLIISSRNLHWYQQKSETSPKPWIYGTSNLASGVPVRFSGSGSGTSYSLTISSMEAEDAATYYCQQWSDYPLTFGSGTKLEIK ... 1.52

Prompt line: Returns the measured Kd for the input binder. Input: anti-CD39 monoclonal antibody 5-165C (antibody, V domains shown, purified mouse hybridoma antibody, IgG2a isotype; also called R21-5-165C; R29-5-165C) VH: EVQLVESGGDLVKPGGSLKLSCAAFGFTFSRYGMSWVRQTPDKRLEWVATITSGGIYTYYPDSVKGRFTISRDNAKNTLYLQMSSLKSEETAMYYCARHGQFGDYYGMDYWGQGTSVTVSS VL: DVVMTQTPLSLPVSLGDQASISCRSSQSLLHSNGNTYLHWYLQKPGQSPKLLIYKVSNRFSGVPDRFSGSGSGTDFTLKISRVEAEDLGVYFCSQSTHVPYTFGGGTKLEIK
Response line: 2.53
